assay: chemical genetic growth profiling, strain panel (AID 1159580);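 further: tested at 20 µM; growth read once vehicle control cultures reached saturation at 30 °C; 1 = growth at the plate median or of vehicle wells; lower values mean less growth of the strain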; conditions: S. cerevisiae deletion strains, growth OD, locus YLR371W, strain rom2, active compounds read low
Hit rate of the full screen: of about 5,500 compounds, about 2,000 (36%) were called active. Another 18% or so got no clear call; they are omitted. This is one part of the list.
PROPERTY: normalized growth
Form: value (number only, do not type unit).

For the compound CC1=CC2C(CC1=O)C(C)=CCC2C(C)C (configuration not stated) , report normalized growth. 0.841

---

test: chemical genetic growth profiling, strain panel (AID 1159580);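 further: tested at 20 µM; growth read once vehicle control cultures reached saturation at 30 °C; 1 = growth at the plate median or of vehicle wells; lower values mean less growth of the strain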; conditions: S. cerevisiae deletion strains, growth OD, locus YER015W, strain faa2, active compounds read low
Hit rate of the full screen: of about 5,500 compounds, about 2,000 (36%) were called active. Not shown: some 18% with an inconclusive outcome. The list shows a part of the results.
A collection of compounds and their measured normalized growth
Form: value (number only, do not type unit).

Use the examples below as a reference point.
{"columns": ["COMPOUND", "normalized growth"],
 "data": [
  ["CCCCN1CCCCC1C(=O)Nc1c(C)cccc1C (stereo not given)", 0.992],
  ["CCCCCCOc1ccccc1C(N)=O", 0.892]
]}

For the compound `CCCCOC(=O)c1ccc(N)cc1` , report normalized growth. 0.864

For the compound `CC(=O)Oc1c(C)cccc1C(=O)O` , report normalized growth. 1.01

For the compound `CCCOc1ccc(C(=O)OCCN(CC)CC)cc1N` , report normalized growth. 1.03
